Measured composite z-score of individual entries
- target: Torsin-1A (Homo sapiens) (UniProt O14656)
- Sequence (O14656 whole entry, looked up): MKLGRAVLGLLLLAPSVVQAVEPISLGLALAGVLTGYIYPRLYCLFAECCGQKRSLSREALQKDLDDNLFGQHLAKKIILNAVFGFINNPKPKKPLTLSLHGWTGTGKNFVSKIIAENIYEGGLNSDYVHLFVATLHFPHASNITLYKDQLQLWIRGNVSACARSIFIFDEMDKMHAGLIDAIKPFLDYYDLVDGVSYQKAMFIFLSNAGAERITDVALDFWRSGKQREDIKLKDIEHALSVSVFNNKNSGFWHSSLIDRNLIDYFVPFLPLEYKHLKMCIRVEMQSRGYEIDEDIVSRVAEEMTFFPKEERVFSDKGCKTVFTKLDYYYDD
- assay_notes: small-molecule binders of mutant TOR1A in lysate, primary screen, cell lysate, small-molecule microarray, COS7 lysate, 635/667 nm fluorescence (AID 1150);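 also: score pools 667 nm emission and signal to noise measuring lysate protein binding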
- run_parameters: COS7 hTOR1A mutant lysate, 635 nm fluorescence, higher = more signal
I only need the number, thanks.

compound | readout_number
CC1CC/C=C\[C@H]2OC34C=CCN(C(C)C)C(=O)[C@H]3N(CCCCCO)C(=O)[C@@H]4C2C(=O)O1 (some centres undefined) | -0.751
[N-]=[N+]=Nc1ccccc1[C@@H]1OC(c2ccc(OCCCO)cc2)=N[C@]1(CCS(=O)(=O)c1ccccc1)C(=O)NCCN1CCOCC1 | 1.15
CCCCN1CC=CC23O[C@@H]4C=CCOC(=O)[C@@H]4[C@H]2C(=O)N(CCCO)[C@@H]3C1=O (some centres undefined) | -0.107

Here is another compound to look at.
I am curious: what composite z-score value has been reported for C=C(CCCC)C(=O)CC[C@@H](OC(=O)c1ccccc1-c1ccccc1C(=O)O)c1cccc(OCCO)c1 ?
0.561

Reference for the values: PubChem BioAssay
